# Tested on: MIWI (PIWIL1) piRISC loaded with Kctd7 piRNA (30 nt);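 note: 1 nM active piRISC with 0.1 nM target library at 33 °C single turnover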
# Procedure Text: pre-steady-state target cleavage rate (min^-1); MIWI and MILI are mouse PIWI proteins and EfPiwi is from a freshwater sponge; tags in brackets are library labels; higher = faster piRNA-guided slicing of the target;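 note: 1 nM active piRISC with 0.1 nM target library at 33 °C single turnover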
# Measurement Context: guide: Kctd7 piRNA 5'p-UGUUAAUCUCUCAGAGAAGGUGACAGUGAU; auxiliary factor: 500 nM mouse GTSF1
In all, about 6,600 sequences were measured (“pre-steady-state target cleavage rate”: median about 0.07, highest 2% from about 0.72 on). The list comes from a sample in which the highest values are over-represented; it also holds close analogues and randomly drawn sequences.
Fulfilled means recorded pre-steady-state target cleavage rate is 0.7 or above; Not fulfilled means it is below 0.7.

sequence_text=UUCACUGUCACCUUGUCUGAGAGAUUUACA assay_system="MIWI (PIWIL1) piRISC loaded with Kctd7 piRNA (30 nt)" assigned_category="Not fulfilled"
sequence_text=UAGUCUGUCUCCUUCUGUGAGAGAUUAACA assay_system="MIWI (PIWIL1) piRISC loaded with Kctd7 piRNA (30 nt)" assigned_category="Not fulfilled"
sequence_text=AUCACUGUCACCUUGUCUGAGAGUUUAACA assay_system="MIWI (PIWIL1) piRISC loaded with Kctd7 piRNA (30 nt)" assigned_category=Fulfilled
sequence_text=UACACGUGUCACCUUCUCUGAGAGAUUAACA assay_system="MIWI (PIWIL1) piRISC loaded with Kctd7 piRNA (30 nt)" assigned_category="Not fulfilled"
sequence_text=UAGUGACAGUGGAUCUCUGAGAAAUUAACA assay_system="MIWI (PIWIL1) piRISC loaded with Kctd7 piRNA (30 nt)" assigned_category="Not fulfilled"
sequence_text=AUCACUGUCACCUUCACUGAGACAUUAACA assay_system="MIWI (PIWIL1) piRISC loaded with Kctd7 piRNA (30 nt)" assigned_category="Not fulfilled"
sequence_text=AUCACGUCACCUUCUCUGAGAGAUUAACA assay_system="MIWI (PIWIL1) piRISC loaded with Kctd7 piRNA (30 nt)" assigned_category=Fulfilled
sequence_text=UUCACUGACACCUUCUCUGAGAGUUUAACA assay_system="MIWI (PIWIL1) piRISC loaded with Kctd7 piRNA (30 nt)" assigned_category="Not fulfilled"
sequence_text=UAGACUGUCACCUUGUCUGAGAGAUUUACA assay_system="MIWI (PIWIL1) piRISC loaded with Kctd7 piRNA (30 nt)" assigned_category="Not fulfilled"
sequence_text=UACACUGACACCUUCUCUGAGAGUUUAACA assay_system="MIWI (PIWIL1) piRISC loaded with Kctd7 piRNA (30 nt)" assigned_category=Fulfilled
sequence_text=UUCACUGUCACCUUCUCUGAGAGUUUAUCA assay_system="MIWI (PIWIL1) piRISC loaded with Kctd7 piRNA (30 nt)" assigned_category="Not fulfilled"
sequence_text=UACUCUGUCACCUUCUCUGAGAGUUUAACA assay_system="MIWI (PIWIL1) piRISC loaded with Kctd7 piRNA (30 nt)" assigned_category=Fulfilled
sequence_text=AUCACUGUCACCUUCUCUGAGAGUUUAUCA assay_system="MIWI (PIWIL1) piRISC loaded with Kctd7 piRNA (30 nt)" assigned_category=Fulfilled
sequence_text=AUCACUGUCACCUUGUCUGAGAGAUUUACA assay_system="MIWI (PIWIL1) piRISC loaded with Kctd7 piRNA (30 nt)" assigned_category=Fulfilled
sequence_text=UAGACUCACACCUUCUCUGAGAGAUUAUGA assay_system="MIWI (PIWIL1) piRISC loaded with Kctd7 piRNA (30 nt)" assigned_category="Not fulfilled"
sequence_text=UAGUGACAGACCUUCUCUGAGAUAUUAACA assay_system="MIWI (PIWIL1) piRISC loaded with Kctd7 piRNA (30 nt)" assigned_category="Not fulfilled"
sequence_text=UAGUGUGUCUCCUUCUCUGACAGAUUAACA assay_system="MIWI (PIWIL1) piRISC loaded with Kctd7 piRNA (30 nt)" assigned_category="Not fulfilled"
sequence_text=UACACGGUCACCUUCUCUGAGAGAUUAACA assay_system="MIWI (PIWIL1) piRISC loaded with Kctd7 piRNA (30 nt)" assigned_category="Not fulfilled"
sequence_text=AUCACCGUCACCUUCUCUGAGAGAUUAACA assay_system="MIWI (PIWIL1) piRISC loaded with Kctd7 piRNA (30 nt)" assigned_category="Not fulfilled"
sequence_text=AUCACUGUCACCUUCACUGAGAGAUUUACA assay_system="MIWI (PIWIL1) piRISC loaded with Kctd7 piRNA (30 nt)" assigned_category="Not fulfilled"
sequence_text=AUCACUGACACCUUCUCUGAGAGUUUAACA assay_system="MIWI (PIWIL1) piRISC loaded with Kctd7 piRNA (30 nt)" assigned_category="Not fulfilled"
sequence_text=UACACUGACACCUUCUCUGUGAGAUUAACA assay_system="MIWI (PIWIL1) piRISC loaded with Kctd7 piRNA (30 nt)" assigned_category="Not fulfilled"
sequence_text=UACACUGUCACCUUCUCUGAGAGUUUAUCA assay_system="MIWI (PIWIL1) piRISC loaded with Kctd7 piRNA (30 nt)" assigned_category="Not fulfilled"
sequence_text=UAGACUCUCACCUUCUCUGAGAGAUUAACA assay_system="MIWI (PIWIL1) piRISC loaded with Kctd7 piRNA (30 nt)" assigned_category="Not fulfilled"
sequence_text=UAGUGUGUCACCUUCUCUGAGACAUUUACA assay_system="MIWI (PIWIL1) piRISC loaded with Kctd7 piRNA (30 nt)" assigned_category="Not fulfilled"
sequence_text=UACACUCACACCUUCUCUGAGAGAUAUUGA assay_system="MIWI (PIWIL1) piRISC loaded with Kctd7 piRNA (30 nt)" assigned_category="Not fulfilled"
